Test system: Fibroblast
method_description: Multiplex assay against human fibroblast
Format: toxicity, cell-based
test_conditions: 48 h, 1 µM, compound concentration 1 uM, replicate 2
property_label: Population Apoptotic (%)
Give bare numbers, in %.

Below are worked cases with known answers.
# compound, unit_abbrev, Population Apoptotic (%)
rows = [
    ("CN(C)C(=O)/C(C#N)=C/c1ccc(-c2nc3cnc4[nH]ccc4c3n2C2CCCCC2)o1", "%", 100),
    ("Cc1cc(C)cc(-c2cnc3cc(Cl)c(-c4cccc(O)c4)cc3c2OCCCN)c1", "%", 75),
    ("CN(C)C(=O)N[C@H]1CC[C@H](CCN2CCN(c3cccc(Cl)c3Cl)CC2)CC1.Cl [CARIPRAZINE HYDROCHLORIDE]", "%", 60),
    ("Cc1[nH]c(/C=C2\\C(=O)Nc3ccc(S(=O)(=O)N(C)c4cccc(Cl)c4)cc32)c(C)c1C(=O)N1CCN(C)CC1", "%", 50),
]

Quick one: give me Population Apoptotic (%) for each item below, same order please.
1. CN1CCC[C@@H]1CCO[C@](C)(c1ccccc1)c1ccc(Cl)cc1.O=C(O)/C=C/C(=O)O [CLEMASTINE FUMARATE]
2. CN(C)CC#Cc1ccc(OCCCc2sc(N3CCc4cccc(C(=O)Nc5nc6ccccc6s5)c4C3)nc2C(=O)O)c(F)c1

1. 0
2. 80

###

System: HEK-293T
method_description: Multiplex assay against HEK293T
Format: toxicity, cell-based
test_conditions: human, 48 h, 1 µM, compound concentration 1 uM, replicate 1
Population Pyknosed Nuclei (%) under 20% gets Criterion met, anything at or over 20% gets Criterion not met.

# molecule, group_label
records = [
    ("CC[C@H](C)C(=O)O[C@H]1C[C@@H](C)C=C2C=C[C@H](C)[C@H](CC[C@@H]3C[C@@H](O)CC(=O)O3)[C@H]21", "Criterion not met"),
    ("CN1CCN(c2ccc(OC(F)(F)F)c(Nc3ncc4c(n3)-c3c(c(C(N)=O)nn3CCO)CC4)c2)CC1", "Criterion not met"),
    ("C[C@@H](NCCCc1cccc(C(F)(F)F)c1)c1cccc2ccccc12.Cl [CINACALCET HYDROCHLORIDE]", "Criterion met"),
]

Would you kindly verify if Population Pyknosed Nuclei (%) of CN1CCN(CCOc2cc(OC3CCOCC3)c3c(Nc4c(Cl)ccc5c4OCO5)ncnc3c2)CC1 is strictly less than 20%?
Criterion not met

Here is the next molecule: C=CC(=O)Nc1ccc2ncnc(Nc3ccc(OCc4cccc(F)c4)c(Cl)c3)c2c1.Cc1ccc(S(=O)(=O)O)cc1
Criterion not met

One more molecule: COc1cc(-n2cnc3cc(-c4ccc(Cl)cc4)sc3c2=O)ccc1OCCN1CCCC1
Criterion not met

Queued: c1cn2cc(-c3ccc4cn[nH]c4c3)nc(Nc3ccc(N4CCOCC4)cc3)c2n1
Criterion met

###

Assignment: determine reported Population Membrane Permeable-Phenotype (%) for the given molecules.
Test system: U2OS
method_description: Multiplex assay against U2OS
Type: toxicity, cell-based
test_conditions: human, 12 h, 1 µM, compound concentration 1 uM, replicate 1
Give bare numbers, in %.

# molecule, unit_abbrev, result
records = [
    ("Cc1nc(-c2ccc(-c3ccc(C(=O)N4CCc5cc6c(cc54)C4(CCN(C)CC4)CO6)cc3)c(C)c2)no1", "%", 6),
]

Provide reported Population Membrane Permeable-Phenotype (%) for each item, in the same order as listed.
1. CNc1nc(NCc2ccc(NS(C)(=O)=O)cc2Cl)cc(-c2ccccn2)n1
2. c1cn2cc(-c3ccc4cn[nH]c4c3)nc(Nc3ccc(N4CCOCC4)cc3)c2n1
3. COc1cccc([C@@H](C)NCCCc2ccccc2Cl)c1.Cl [TECALCET HYDROCHLORIDE]
4. CN(C)C(=O)N[C@H]1CC[C@H](CCN2CCN(c3cccc(Cl)c3Cl)CC2)CC1.Cl [CARIPRAZINE HYDROCHLORIDE]
5. Cn1cc(C2=C(c3cn(C4CCN(Cc5ccccn5)CC4)c4ccccc34)C(=O)NC2=O)c2ccccc21

[7, 13, 3, 4, 58]

Give measured Population Membrane Permeable-Phenotype (%) for every item shown.
1. C[C@@]1(C(=O)Nc2ccc(F)nc2)CCCN1c1nc(Nc2cc(C3CC3)n[nH]2)c2cccn2n1
2. Cc1csc2c(N[C@@H](C)CN3CCN(S(=O)(=O)c4ccc(Cl)c(Cl)c4)CC3)ncnc12
3. Cn1cc(-c2[nH]c3cc(NC(=O)[C@H](N)C4CCCCC4)cc4c3c2C=NNC4=O)cn1

[61, 4, 6]
